Tested on: MDA-MB-231 cells
measurement.description: Cytotoxic activity (MTT assay)
Type: cell-based, human
applied.conditions: MDA-MB-231, 72 h; read-out: Cytotoxic effect EC50 on MDA-MB-231, 72 h
reported.endpoint: EC50
Report the figure along with its unit, number first.

Q: Any idea what its EC50 is? The compound is COC1C(O)C(CO)OC(OC2C(O)COC(OC3C(C)OC(OC4C(OC5CCC6(C)C7CCC89C(=O)OC(C)(CC(=O)CC(C)C)C8C(OC(C)=O)CC9(C)C7=CCC6C5(C)C)OCC(OS(=O)(=O)[O-])C4O)C(O)C3O)C2O)C1O.[Na+] (stereo not shown) [okhotoside A1-1]
Ans: 1730 nM
